Target: AgLsb1
Experiment: SPOT peptide array binding signal intensity (averaged, normalized) (arbitrary units (background-subtracted, floor 0; scale differs between SH3 domains)); higher = stronger binding of the SH3 domain to the peptide
TEST READOUT: SPOT peptide array binding signal intensity

Exercise: Please give measured SPOT peptide array binding signal intensity of the following entry: EQEEIAPSLPSRNSI
Solution: 17.5

Exercise: Please give measured SPOT peptide array binding signal intensity of the following entry: SKSRLLIELPEGFFT
Solution: ≤ 0

Exercise: Please give measured SPOT peptide array binding signal intensity of the following entry: IAPIPMPKPNPTHIS
Solution: ≤ 0

Exercise: Please give measured SPOT peptide array binding signal intensity of the following entry: GAGERPRLVPRPINV
Solution: 9

Exercise: Please give measured SPOT peptide array binding signal intensity of the following entry: PSTMDFPKLPSFQNS
Solution: 0.5

Exercise: Please give measured SPOT peptide array binding signal intensity of the following entry: NLDRSKISLPDFDDE
Solution: ≤ 0

Exercise: Please give measured SPOT peptide array binding signal intensity of the following entry: SKIRPTPRKPSRMAT
Solution: 69.2

Numbers sourced from the supplement of paper PMC4466140.
